Taken from the Immune Epitope Database (IEDB).

Field: pKd. Provide a value for each of the sequences that follow.
# measured target: HLA-A*26:01
# procedure details: IEDB peptide-MHC binding, purified MHC/competitive/fluorescence; filed as Kd, often an IC50 or EC50 that approximates it; bounds were set here for any values at or beyond the usual limits of such assays
# measurement parameters: source organism: Reston ebolavirus
pKd: −log10 of the molar value.

pKd recorded for this sequence, KHDFIDNPL , is ≤ 4.70

pKd recorded for this sequence, QAFEAGIDF , is ≤ 4.70

pKd recorded for this sequence, FHRKKTDAL , is ≤ 4.70

---

# measured target: HLA-B*48:01
# procedure details: IEDB peptide-MHC binding, purified MHC/direct/fluorescence; filed as Kd, often an IC50 or EC50 that approximates it; bounds were set here for any values at or beyond the usual limits of such assays
# measurement parameters: source organism: Influenza A virus (A/quail/Hong Kong/FY298/00(H9N2))
readout type: Kd

Kd recorded for this sequence, TKDAERGKL , is ≥ 20 µM

---

# measured target: HLA-A*68:02
# procedure details: IEDB peptide-MHC binding, purified MHC/competitive/radioactivity; filed as Kd, often an IC50 or EC50 that approximates it; bounds were set here for any values at or beyond the usual limits of such assays
# measurement parameters: source organism: Trypanosoma cruzi
pKd: −log10 of the molar value.
readout type: pKd

pKd recorded for this sequence, FVNYNFTLV , is 9.47

pKd recorded for this sequence, LLGLWGLATA , is 6.39

pKd recorded for this sequence, LLGLWGFAAA , is ≤ 3.90

pKd recorded for this sequence, LLGLWGIAAS , is ≤ 3.95

pKd recorded for this sequence, GLLPLLLLLL , is ≤ 4.55

pKd recorded for this sequence, GLLPSLLLLL , is ≤ 4.48

---

# measured target: HLA-A*03:01
# procedure details: IEDB peptide-MHC binding, purified MHC/competitive/radioactivity; filed as Kd, often an IC50 or EC50 that approximates it; bounds were set here for any values at or beyond the usual limits of such assays
# measurement parameters: source organism: Dengue virus 2 Peru/IQT2913/1996
readout type: pKd
# pKd = -log10(concentration in molar units)

Entry LINRFTMRHK : pKd on HLA-A*03:01 = 7.85

---

# measured target: HLA-A*29:02
# procedure details: IEDB peptide-MHC binding, purified MHC/competitive/fluorescence; filed as Kd, often an IC50 or EC50 that approximates it; bounds were set here for any values at or beyond the usual limits of such assays
# measurement parameters: source organism: Bacillus anthracis str. A0488
readout type: Kd (nM)
Write the value in nM as a bare number.

Kd recorded for this sequence, APKDLLPWY , is 2540

---

# measured target: HLA-A*02:01
# procedure details: IEDB peptide-MHC binding, purified MHC/direct/fluorescence; filed as Kd, often an IC50 or EC50 that approximates it; bounds were set here for any values at or beyond the usual limits of such assays
# measurement parameters: source organism: Cryptosporidium parvum
pKd: −log10 of the molar value.
Field: pKd. Provide a value for each of the sequences that follow.

pKd recorded for this sequence, ISCQIYNAL , is ≤ 4.70

pKd recorded for this sequence, VPPTNSINK , is ≤ 4.70

---

# measured target: HLA-A*11:01
# procedure details: IEDB peptide-MHC binding, purified MHC/competitive/radioactivity; filed as Kd, often an IC50 or EC50 that approximates it; bounds were set here for any values at or beyond the usual limits of such assays
# measurement parameters: source organism: Vaccinia virus WR
Field: pKd. Provide a value for each of the sequences that follow.
# pKd = -log10(concentration in molar units)

pKd recorded for this sequence, SLENLDPDNK , is 8.16

pKd recorded for this sequence, LVYFSTQQNK , is 8.81

pKd recorded for this sequence, ILSDIISAEK , is 9.08

pKd recorded for this sequence, FLLRHYYNK , is 7.57

pKd recorded for this sequence, TQIFEVYWY , is 6.45

pKd recorded for this sequence, IVRTMPNESR , is 4.79

pKd recorded for this sequence, ASITPNNLNK , is 8.95

pKd recorded for this sequence, LFDFVNFVK , is 6.84

pKd recorded for this sequence, ATIQRFSSLR , is 8.33

pKd recorded for this sequence, LSDENYLLK , is 8.80

pKd recorded for this sequence, QSYKETVHK , is 7.36

pKd recorded for this sequence, TLYVKALTK , is 7.62

pKd recorded for this sequence, MLYQLLEAVY , is 4.86

pKd recorded for this sequence, SIENKHQRR , is 5.20

pKd recorded for this sequence, ILMKTANNY , is 6.54

pKd recorded for this sequence, FLIVSLCPTK , is 8.66

pKd recorded for this sequence, QIFNEDTSY , is 7.14

pKd recorded for this sequence, FTDISMSLY , is 5.60

pKd recorded for this sequence, TSVDIETAIR , is 6.24

pKd recorded for this sequence, ILGGVLHTK , is 7.71

pKd recorded for this sequence, GIADIRDKY , is 5.05

pKd recorded for this sequence, QTSVNTVVR , is 6.03

pKd recorded for this sequence, ALINLVQYR , is 5.41

pKd recorded for this sequence, IMLEGETKLY , is 5.29

pKd recorded for this sequence, EANASAQTK , is 5.59
